- TARGET UNDER TEST: Ybr033w (UniProt P38073)
- Sequence: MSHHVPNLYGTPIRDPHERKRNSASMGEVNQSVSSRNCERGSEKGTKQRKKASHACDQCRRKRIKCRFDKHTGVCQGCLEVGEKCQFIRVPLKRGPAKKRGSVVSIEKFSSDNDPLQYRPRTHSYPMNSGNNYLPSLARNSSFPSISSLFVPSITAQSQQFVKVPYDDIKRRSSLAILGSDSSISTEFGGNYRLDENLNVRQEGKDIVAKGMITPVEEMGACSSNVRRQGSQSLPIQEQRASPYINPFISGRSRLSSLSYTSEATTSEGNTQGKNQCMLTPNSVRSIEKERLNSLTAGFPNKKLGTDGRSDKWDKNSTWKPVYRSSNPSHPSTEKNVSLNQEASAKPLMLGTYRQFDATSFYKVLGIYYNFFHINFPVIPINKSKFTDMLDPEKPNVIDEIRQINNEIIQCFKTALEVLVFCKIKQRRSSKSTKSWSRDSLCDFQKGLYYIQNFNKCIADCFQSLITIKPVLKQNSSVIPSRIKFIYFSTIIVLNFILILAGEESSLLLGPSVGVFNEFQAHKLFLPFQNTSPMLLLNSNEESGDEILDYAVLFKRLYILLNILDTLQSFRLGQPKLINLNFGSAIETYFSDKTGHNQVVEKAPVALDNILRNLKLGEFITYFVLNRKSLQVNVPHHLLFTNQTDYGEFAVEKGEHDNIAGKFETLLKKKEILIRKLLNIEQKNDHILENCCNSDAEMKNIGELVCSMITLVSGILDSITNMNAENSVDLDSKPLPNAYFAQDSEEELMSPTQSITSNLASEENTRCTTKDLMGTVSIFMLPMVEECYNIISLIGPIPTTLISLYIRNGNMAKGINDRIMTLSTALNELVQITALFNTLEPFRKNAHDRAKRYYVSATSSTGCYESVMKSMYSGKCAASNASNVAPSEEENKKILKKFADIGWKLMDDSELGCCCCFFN
- PROCEDURE TEXT: PBM E-score (8-mer binding enrichment) (E-score (-0.5 to 0.5)); higher = stronger / more preferred TF binding
- RUN PARAMETERS: protein concentration: 200 nM; construct: GST-full length
In all, about 33,000 sequences were measured (“E-score (-0.5 to 0.5)”: median about -0.012, highest 2% from about 0.29 on). The list comes from a sample in which the highest values are over-represented; it also holds close analogues and randomly drawn sequences.
MEASURED ATTRIBUTE: PBM E-score
Please give the numeric answer without any surrounding text.

Completed entries (count: 4):
{"columns": ["BIOPOLYMER SEQUENCE", "PBM E-score"],
 "data": [
  ["CGACAAAC", 0.0224],
  ["TATGTCAA", 0.318],
  ["AACCACAT", 0.00349],
  ["AAAGCTAG", 0.103]
]}

Name the recorded PBM E-score of the sequence listed here: GGTTCTAC -0.0153

Name the recorded PBM E-score of the sequence listed here: CGATGAAC -0.00159

Name the recorded PBM E-score of the sequence listed here: GGGATAAC 0.00039

Name the recorded PBM E-score of the sequence listed here: GATGTCAA 0.0645

Name the recorded PBM E-score of the sequence listed here: GACAGAGA -0.066

Name the recorded PBM E-score of the sequence listed here: AAACGGAA 0.341

Name the recorded PBM E-score of the sequence listed here: GTTGCAAA 0.231

Name the recorded PBM E-score of the sequence listed here: GAACGGAA 0.0333

Name the recorded PBM E-score of the sequence listed here: ACTTACTC 0.0333

Name the recorded PBM E-score of the sequence listed here: CACGCGCG -0.0876
